Tested on: TK-10 renal
protocolDetails: NCI-60 one-dose screen, 48 h (100 = growth as untreated, 0 = no growth, -100 = all killed)
settings: 10 µM unless noted
This is part of a sample that, as a whole, favours compounds with a hit. Of some 83,000 tested, about 20% had one in any assay.
valueType: growth (%)
Please reply with the bare figure in % and do not write the unit itself.

INSERT INTO measurements (compound, experimentalsystem, valuetype, numericresult) VALUES
  ('Clc1ccc2[nH]cc(-c3nn4cc(-c5ccncc5)nc4s3)c2c1', 'TK-10 renal', 'growth', 125),
  ('O=C(N/N=C/c1cc2ccccc2nc1Cl)c1cc(-c2nc3ccccc3[nH]2)nc2ccccc12', 'TK-10 renal', 'growth', 91.7),
  ('CN1CCN(c2ccc(Nc3nc(NCCCNS(=O)(=O)c4ccc(C(F)(F)F)cc4)c4sccc4n3)cc2)CC1', 'TK-10 renal', 'growth', -34.4),
  ('COc1ccc([C@H]2C(=O)N(c3cc(OC)c(OC)c(OC)c3)[C@@H]2c2ccc(OC)c(O)c2)cc1', 'TK-10 renal', 'growth', 110),
  ('CS(=O)(=O)c1ccc(/C(=N/N=C(N)N)c2ccc(Cl)cc2)cc1', 'TK-10 renal', 'growth', 76.1),
  ('COc1ccc2[nH]cc(/C=N/Nc3ccnc4cc(Cl)ccc34)c2c1', 'TK-10 renal', 'growth', -96.5),
  ('CCCCN1C(=O)/C(=c2\sc3n(c2=O)C2C(NN=3)N(CC)C(=O)N2CC)c2cccc(C)c21 (centres undefined)', 'TK-10 renal', 'growth', 82.9),
  ('C#C[C@]1(O)CC[C@H]2[C@@H]3CC=C4c5sc(N(C)c6ccccc6)nc5CC[C@]4(C)[C@H]3CC[C@@]21C', 'TK-10 renal', 'growth', 137),
  ('CC(=O)c1cc(C(=O)N2c3ccccc3Sc3ccccc32)n2c1ccc1ccccc12', 'TK-10 renal', 'growth', 107),
  ('N#CC1=C2NCCCNc3oc(nc3C#N)Cc3ccccc3CC(=N1)O2', 'TK-10 renal', 'growth', 106);

Exam item: I would be grateful if you could share the reported growth for c1ccc(-c2cn3c(-c4c[nH]c5ccccc45)csc3n2)cc1 .
Marked response: 148

Exam item: I would be grateful if you could share the reported growth for Cc1ccc([C@H]2c3[nH]c4ccccc4c3C[C@H]3C(=O)N(CCCCCCC(=O)NO)CC(=O)N23)s1 .
Marked response: 64.2

Exam item: I would be grateful if you could share the reported growth for O=C1[C@@H]2Cc3c([nH]c4ccccc34)[C@H](c3ccc(Cl)cc3)N2C(=O)CN1C1CCN(Cc2ccccc2)CC1 .
Marked response: 81

Exam item: I would be grateful if you could share the reported growth for COc1cc(C(=O)c2cc(C(C)=O)c3ccc(C)cn23)cc(OC)c1OC .
Marked response: 76.3

---

System: NCI-H322M lung
protocolDetails: NCI-60 one-dose screen, 48 h
settings: 10 µM unless noted
The panel holds about 83,000 compounds, 20% with a hit somewhere; the sample as a whole holds those more often. The source made the active and inactive calls. How the source made its calls: active means growth percent below 10; inactive means the rest.
Hi! Could you answer with just one of these? active, inactive

Worked cases, answers included:
INSERT INTO results (compound, classname) VALUES
  ('Cn1ncc2c(C(=O)c3ccc(F)cc3)nc(C(C)(C)C)nc21', 'inactive'),
  ('Cc1ccc(N2CCN(C3=C(Cl)C(=O)c4ncccc4C3=O)CC2)cc1', 'inactive');

Exam item: Hi team, can someone confirm the assay call for CCN(CC)c1ccc(/C=N/NC(=O)c2ccc(NS(C)(=O)=O)cc2)c(O)c1 ?
Marked response: inactive

Exam item: Hi team, can someone confirm the assay call for O=C(/C=C/Nc1ccc(S(=O)(=O)Nc2ncccn2)cc1)c1ccc(N=Cc2c(O)[nH]c3ccccc23)cc1 ?
Marked response: inactive

Exam item: Hi team, can someone confirm the assay call for CCC1=Cc2c(OC)cccc2OC12C=Cc1c(OC)cccc1O2 (stereo not given) ?
Marked response: inactive

Exam item: Hi team, can someone confirm the assay call for C=C(C=O)[C@@H]1CC[C@]2(C(=O)O)CC[C@]3(C)C(CC[C@@H]4[C@@](C)(CCC#N)[C@H](C(=C)C=O)CC[C@]43C)[C@@H]12 (stereo not given in full) ?
Marked response: inactive

Exam item: Hi team, can someone confirm the assay call for COc1cc2oc(-c3cccc(NC(=O)[C@@H](N)C(C)C)c3)cc(=O)c2c(OC)c1OC ?
Marked response: inactive

Exam item: Hi team, can someone confirm the assay call for C#CCN(C)CCCOc1ccc(NCc2ccc(/C=C/C(=O)NO)cc2)cc1Cl ?
Marked response: active

Exam item: Hi team, can someone confirm the assay call for CCCC[n+]1ccc(SCC(=O)n2ccc3ccccc32)c2ccccc21 ?
Marked response: inactive

Exam item: Hi team, can someone confirm the assay call for O=C(NNc1nc2cc(F)cc(F)c2n2cccc12)c1cccnn1 ?
Marked response: inactive

Exam item: Hi team, can someone confirm the assay call for Cn1cc(-c2cc3ncnc(Nc4ccc(NC(=O)Nc5cc(C(C)(C)C)on5)cc4)c3s2)cn1 ?
Marked response: inactive

Exam item: Hi team, can someone confirm the assay call for N#C/C(=C\c1cccc2c1OCO2)C(=O)Nc1sc2c(c1C#N)CCCC2 ?
Marked response: inactive

Exam item: Hi team, can someone confirm the assay call for O=C1[C@H]2Cc3c([nH]c4ccccc34)[C@H](c3ccc(Cl)cc3)N2C(=O)CN1C1CCN(CC2CCCCC2)CC1 ?
Marked response: inactive

Exam item: Hi team, can someone confirm the assay call for COc1cc(/C=N\NC(=O)c2ccc3nc(-c4ccc(Br)cc4)[nH]c3c2)cc(OC)c1OC ?
Marked response: inactive

Exam item: Hi team, can someone confirm the assay call for CC(=O)OCCCCN1C=C/C(=C\C(=O)n2ccc3ccccc32)c2ccccc21 ?
Marked response: inactive

Exam item: Hi team, can someone confirm the assay call for NC1=NC2(CCCC2)N(c2ccc(S(=O)(=O)Nc3nccs3)cc2)C(N)=N1 ?
Marked response: inactive

Exam item: Hi team, can someone confirm the assay call for COc1ccccc1Cn1cc(C#N)c(N)c1C(=O)c1ccc(Br)cc1 ?
Marked response: inactive

---

Test system: HOP-62 NSCLC
protocolDetails: NCI-60 one-dose screen, 48 h (100 = growth as untreated, 0 = no growth, -100 = all killed)
settings: 10 µM unless noted
About 83,000 compounds went through this panel and 20% of them were active in at least one assay; those are over-represented in the sample as a whole.
Overview of recorded growth for various molecules
Please reply with the bare figure in % and do not write the unit itself.

Exam item: I would be grateful if you could share the reported growth for C/C(CC1(O)C(=O)Nc2ccccc21)=N\O (stereo unspecified) .
Marked response: 95.2

Exam item: I would be grateful if you could share the reported growth for CCN(CC)c1ccc(/C=N/NC(=O)c2ccc(NS(C)(=O)=O)cc2)c(O)c1 .
Marked response: 13.2

Exam item: I would be grateful if you could share the reported growth for O=C(CSc1nnc(-c2cccs2)n1-c1ccccc1)Nc1ccccc1F .
Marked response: 76.9

Exam item: I would be grateful if you could share the reported growth for NC1[C@H]2CN(c3cnc(C(=O)Nc4cc(F)cc5cccnc45)cn3)C[C@@H]12 (stereo partly specified) .
Marked response: 82.4

Exam item: I would be grateful if you could share the reported growth for CCCCc1nc2c(N)nc3ccccc3c2n1Cc1cccc(CN)c1 .
Marked response: 57.3

---

Overview of recorded growth for various compounds
Tested on: NCI-H226 lung
protocolDetails: NCI-60 one-dose screen, 48 h (100 = growth as untreated, 0 = no growth, -100 = all killed)
settings: 10 µM unless noted
Compounds without any hit were thinned out: in the full panel of roughly 83,000, 20% have a hit. The source made the active and inactive calls. The calls were made as follows: active = growth percent below 10; inactive = the rest.

Solved entries (count: 6):
INSERT INTO results (compound, valuetype, result) VALUES
  ('Clc1cccc(/C=N/Nc2nc(N/N=C/c3cccc(Cl)c3)nc(N3CCOCC3)n2)c1', 'growth', '60.4% (inactive)'),
  ('CC1=Cc2ccccc2OC12C=Cc1ccccc1O2 (configuration not stated)', 'growth', '91.7% (inactive)'),
  ('NC(N)=NS(=O)(=O)c1ccc(N=Nc2c(N)nn(-c3ccc([N+](=O)[O-])cc3[N+](=O)[O-])c2N)cc1', 'growth', '93.3% (inactive)'),
  ('Cc1ccccc1N1CCN(C2=C(Cl)C(=O)c3ncccc3C2=O)CC1', 'growth', '94.2% (inactive)'),
  ('FC(F)(F)c1cc(Br)cc(-c2cc(-c3ccc4c(c3)OCCO4)[nH]n2)c1', 'growth', '53.8% (inactive)'),
  ('CCCCCCN1C=C/C(=C\C(=O)n2ccc3ccccc32)c2ccccc21', 'growth', '52.9% (inactive)');

# ---- query compound ----
Exam item: I would be grateful if you could share the reported growth for NC(=O)n1c(=O)n(-c2cccc(C(F)(F)F)c2)c(=O)c2cc(-c3ccc(F)cc3F)ccc21 .
Marked response: 13.2% (inactive)
